Emax: recorded values
target: glutathione-S-transferase (GST) tagged LXRbeta LBD (ligand binding domain) (Homo sapiens, UniProt P55055); construct: purchased Invitrogen pv4658.pps; test: LanthaScreen TR-FRET Liver X Receptor Coactivator Assay, LXR beta-LBD; assay type: biochemical; details: efficacy in relation to reference dual agonist T1317; read-out: LXR beta activity at max dose (%) (Emax)
Sequence (P55055 222-460 limits assumed): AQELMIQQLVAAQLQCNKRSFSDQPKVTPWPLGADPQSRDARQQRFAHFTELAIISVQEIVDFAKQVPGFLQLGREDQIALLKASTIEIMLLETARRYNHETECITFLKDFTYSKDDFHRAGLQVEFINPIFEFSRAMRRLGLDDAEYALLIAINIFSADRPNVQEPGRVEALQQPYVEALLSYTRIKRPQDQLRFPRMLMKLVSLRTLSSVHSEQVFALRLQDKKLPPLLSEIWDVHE

Here is how some compounds turned out for Emax.
Compound: CN(C)C(=O)c1ccc(-c2ccc(N3CC4CCC3CN4C(=O)OC(C)(C)C)c(Cl)c2)cc1Cl (stereo not shown) [Example 4-3]
Emax: 87%

Compound: CN(C)C(=O)c1ccc(-c2cnc(N3CCN(C(=O)OC(C)(C)C)CC3)c(CO)c2)cc1Cl [Example 9-3]
Emax: 57%

Compound: CN(C)C(=O)c1ccc(-c2cnc(N3CCN(S(=O)(=O)Cc4ccccc4Cl)CC3)c(C#N)c2)cc1Cl [Example 1-12]
Emax: 97%

Task: State its Emax for this compound: CN(C)C(=O)c1ccc(-c2ccc(N3CC4CCC3CN4C(=O)OC(C)(C)C)cc2)cc1Cl (stereo not shown) [Example 8-4]
Result: 78%

---

Molecular target: glutathione-S-transferase (GST) tagged LXRalpha LBD (ligand binding domain) (Homo sapiens)
Construct: purchased Invitrogen pv4655
Sequence (Q13133 209-447 limits assumed): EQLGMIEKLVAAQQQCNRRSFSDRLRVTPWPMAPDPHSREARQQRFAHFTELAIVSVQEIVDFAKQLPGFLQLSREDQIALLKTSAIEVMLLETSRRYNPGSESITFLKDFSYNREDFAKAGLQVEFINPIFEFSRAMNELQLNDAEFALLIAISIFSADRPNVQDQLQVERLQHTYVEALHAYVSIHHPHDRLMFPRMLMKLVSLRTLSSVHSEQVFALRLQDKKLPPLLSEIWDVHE
Test: LanthaScreen TR-FRET Liver X Receptor Coactivator Assay, LXR alpha-LBD
Type: biochemical
Details: potency (Inflection Point) of co-activator recruitment, TR-FRET
Method: While running the LanthaScreen™ TR-FRET Liver X Receptor Coactivator Assay, LXR alpha-LBD or LXR beta-LBD was added to ligand test compounds followed by addition of a mixture of a fluorescein-labelled coactivator peptide and terbium-conjugated anti-GST antibody. After an incubation period at room temperature, TR-FRET (time-resolved fluorescence resonance energy transfer) was measured using a filter-based instrument capable of TR-FRET, e.g. PerkinElmer Envision.
Reported Metric: LXR alpha IP (nM)

Molecule: CN(CCc1ccncc1)C(=O)c1ccc(-c2cnc(N3CCN(C(=O)OC(C)(C)C)CC3)c(C#N)c2)cc1Cl [Example 5-27]
Measured On: glutathione-S-transferase (GST) tagged LXRalpha LBD (ligand binding domain) (Homo sapiens)
Val: No IP
--
Molecule: CC(C)(C)OC(=O)N1CCN(c2ncc(-c3ccc(C(=O)N4CCC(O)CC4)c(Cl)c3)cc2C#N)CC1 [Example 5-17]
Measured On: glutathione-S-transferase (GST) tagged LXRalpha LBD (ligand binding domain) (Homo sapiens)
Val: No IP
--
Molecule: CN(C)C(=O)c1ccc(-c2ccc(N3CCN(C(=O)c4ccccc4C(F)(F)F)CC3)cc2)cc1Cl [Example 4-17]
Measured On: glutathione-S-transferase (GST) tagged LXRalpha LBD (ligand binding domain) (Homo sapiens)
Val: No IP

---

biological target: glutathione-S-transferase (GST) tagged LXRbeta LBD (ligand binding domain) (Homo sapiens); construct: purchased Invitrogen pv4658.pps; assay: LanthaScreen TR-FRET Liver X Receptor Coactivator Assay, LXR beta-LBD; assay type: biochemical; details: efficacy in relation to reference dual agonist T1317; read-out: LXR beta activity at max dose (%) (Emax)
Reported Metric: Emax (%)
Reply numerically in %, unit not repeated.

A selection of reference data follows.
Smiles Code: CN(C)C(=O)c1ccc(-c2ccc(N3CCN(C(=O)[C@](O)(c4ccccc4)C(F)(F)F)CC3)cc2)cc1Cl
Units: %
Emax: 80
--
Smiles Code: CC(C)COC(=O)N1CCN(c2ncc(-c3ccc(C(=O)N(C)C)c(Cl)c3)cc2C#N)CC1
Units: %
Emax: 41
--
Smiles Code: CN(CCn1cccn1)C(=O)c1ccc(-c2cnc(N3CCN(C(=O)OC(C)(C)C)CC3)c(C#N)c2)cc1Cl
Units: %
Emax: 74

Next molecule, Emax to be filled in.
Task: Write down Emax measured for item CC(C)S(=O)(=O)N1CCN(c2ncc(-c3ccc(C(=O)N(C)C)c(Cl)c3)cc2C#N)CC1
Result: 86
